Observed IC50 values for Cyclin-dependent kinase 2 (Homo sapiens, UniProt P24941) are listed in what follows.
readout-type: IC50 (nM)

Consider the following illustrative entries.
CN(C)S(=O)(=O)c1ccc2c(c1)/C(=C/c1[nH]cc3c1CCNC3=O)C(=O)N2    68
COc1ccc2c(c1)/C(=C/c1[nH]cc3c1CCNC3=O)C(=O)N2    250
O=C1Nc2cccc(C3CCNCC3)c2/C1=C/c1[nH]cc2c1CCOC2=O    9

1. O=C1Nc2cc(-c3ccccc3)ccc2/C1=C/c1[nH]cc2c1CCNC2=O
2. COc1ccc2c(c1)/C(=C/c1[nH]cc3c1CCOC3=O)C(=O)N2
stdin: Hi team, can someone confirm which has the larger IC50: 1 or 2 ? Thanks. Your choice should be expressed through its label.
stdout: 1

* * *

assayed-target: UniProt P09619
Sequence (P09619 whole entry): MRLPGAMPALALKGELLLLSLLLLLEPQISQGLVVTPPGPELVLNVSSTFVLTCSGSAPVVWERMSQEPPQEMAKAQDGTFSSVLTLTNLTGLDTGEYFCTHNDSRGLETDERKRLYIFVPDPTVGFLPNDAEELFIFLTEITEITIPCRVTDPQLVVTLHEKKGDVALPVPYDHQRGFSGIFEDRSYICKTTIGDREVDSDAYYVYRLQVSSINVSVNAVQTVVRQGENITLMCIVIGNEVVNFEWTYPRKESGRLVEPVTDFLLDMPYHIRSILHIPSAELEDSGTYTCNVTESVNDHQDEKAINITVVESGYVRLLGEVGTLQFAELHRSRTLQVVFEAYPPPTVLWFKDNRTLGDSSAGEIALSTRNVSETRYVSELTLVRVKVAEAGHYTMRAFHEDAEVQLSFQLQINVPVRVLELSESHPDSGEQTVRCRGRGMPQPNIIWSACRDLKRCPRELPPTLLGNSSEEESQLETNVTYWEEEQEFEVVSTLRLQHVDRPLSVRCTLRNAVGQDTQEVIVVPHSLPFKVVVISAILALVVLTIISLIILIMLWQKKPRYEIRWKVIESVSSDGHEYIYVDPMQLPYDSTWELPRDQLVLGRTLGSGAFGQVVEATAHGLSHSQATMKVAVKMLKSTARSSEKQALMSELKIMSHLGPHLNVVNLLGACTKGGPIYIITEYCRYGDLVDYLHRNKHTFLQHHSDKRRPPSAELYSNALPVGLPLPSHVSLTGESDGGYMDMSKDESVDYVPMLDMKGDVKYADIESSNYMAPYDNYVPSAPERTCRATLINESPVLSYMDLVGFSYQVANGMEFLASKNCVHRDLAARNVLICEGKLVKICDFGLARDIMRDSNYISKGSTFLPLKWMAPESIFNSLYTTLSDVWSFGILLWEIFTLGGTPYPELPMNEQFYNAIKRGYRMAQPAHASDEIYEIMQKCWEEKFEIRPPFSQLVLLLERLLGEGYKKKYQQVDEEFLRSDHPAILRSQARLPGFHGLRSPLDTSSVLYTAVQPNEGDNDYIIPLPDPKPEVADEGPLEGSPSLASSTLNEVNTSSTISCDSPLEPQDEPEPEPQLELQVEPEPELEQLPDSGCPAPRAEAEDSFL
pIC50: −log10 of the molar value.
readout-type: pIC50

Observe how each entry below is paired with its result.
O=C1Nc2ccc(Br)cc2/C1=C/c1[nH]cc2c1CCOC2=O    4.74
COc1ccc2c(c1)NC(=O)/C2=C\c1[nH]cc2c1CCOC2=O    5.85

P. O=C1Nc2cccc(C3CCNCC3)c2/C1=C/c1[nH]cc2c1CCOC2=O
Q. O=C1Nc2ccc(Cl)cc2/C1=C/c1[nH]cc2c1CCOC2=O
stdin: Thinking about recorded pIC50 values, which is higher, P or Q ? I would appreciate it if you answered with the label of your choice.
stdout: P

* * *

Dear all, this message contains pIC50 results, target or system Proto-oncogene tyrosine-protein kinase Src (Homo sapiens).
pIC50: −log10 of the molar value.

Examples with their reported pIC50 follow.
COc1ccc2c(c1)/C(=C/c1[nH]cc3c1CCOC3=O)C(=O)N2    < 4.70
O=C1Nc2ccc(Br)cc2/C1=C/c1[nH]cc2c1CCOC2=O    < 4.70

Next:
stdin: Any idea what pIC50 came out for O=C1Nc2cccc(C3CCNCC3)c2/C1=C/c1[nH]cc2c1CCOC2=O on Proto-oncogene tyrosine-protein kinase Src (Homo sapiens)?
stdout: 5.96

* * *

assayed-target: UniProtKB P35968
Sequence (P35968 whole entry): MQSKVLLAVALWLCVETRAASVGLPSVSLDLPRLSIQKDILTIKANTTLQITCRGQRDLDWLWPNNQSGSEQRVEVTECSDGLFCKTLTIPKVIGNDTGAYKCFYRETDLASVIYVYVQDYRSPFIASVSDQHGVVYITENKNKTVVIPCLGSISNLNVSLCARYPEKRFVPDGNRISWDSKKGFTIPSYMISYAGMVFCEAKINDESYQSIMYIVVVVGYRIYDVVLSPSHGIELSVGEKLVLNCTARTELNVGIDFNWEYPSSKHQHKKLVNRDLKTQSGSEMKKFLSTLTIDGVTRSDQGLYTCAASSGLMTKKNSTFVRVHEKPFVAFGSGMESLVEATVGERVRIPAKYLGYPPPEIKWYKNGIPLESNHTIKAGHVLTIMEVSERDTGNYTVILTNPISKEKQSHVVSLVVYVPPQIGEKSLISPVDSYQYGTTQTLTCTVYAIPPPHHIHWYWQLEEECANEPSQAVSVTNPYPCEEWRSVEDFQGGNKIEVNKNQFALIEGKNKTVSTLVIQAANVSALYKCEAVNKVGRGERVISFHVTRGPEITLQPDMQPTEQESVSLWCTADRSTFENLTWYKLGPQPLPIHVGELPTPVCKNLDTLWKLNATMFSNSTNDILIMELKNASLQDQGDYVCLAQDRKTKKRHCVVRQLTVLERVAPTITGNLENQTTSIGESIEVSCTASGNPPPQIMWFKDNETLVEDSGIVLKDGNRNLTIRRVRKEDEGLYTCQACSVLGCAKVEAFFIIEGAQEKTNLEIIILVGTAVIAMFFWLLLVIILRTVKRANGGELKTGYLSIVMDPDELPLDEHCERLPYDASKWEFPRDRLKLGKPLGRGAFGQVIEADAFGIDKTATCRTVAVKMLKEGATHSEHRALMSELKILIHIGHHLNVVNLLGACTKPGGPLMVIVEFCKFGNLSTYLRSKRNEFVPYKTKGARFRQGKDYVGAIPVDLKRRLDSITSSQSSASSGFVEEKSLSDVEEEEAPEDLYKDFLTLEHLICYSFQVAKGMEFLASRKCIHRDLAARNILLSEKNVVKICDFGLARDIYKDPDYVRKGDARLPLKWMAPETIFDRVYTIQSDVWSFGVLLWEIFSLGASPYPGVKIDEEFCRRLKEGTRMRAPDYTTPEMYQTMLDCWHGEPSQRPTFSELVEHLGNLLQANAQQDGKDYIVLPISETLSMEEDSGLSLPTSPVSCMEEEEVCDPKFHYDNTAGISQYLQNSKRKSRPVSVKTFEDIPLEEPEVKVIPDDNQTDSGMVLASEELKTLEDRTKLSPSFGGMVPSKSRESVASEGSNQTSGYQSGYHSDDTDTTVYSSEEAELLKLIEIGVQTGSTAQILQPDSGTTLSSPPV
readout-type: IC50 (µM)

NS(=O)(=O)c1ccc2c(c1)/C(=C/c1[nH]cc3c1CCOC3=O)C(=O)N2    6.6

A. O=C1Nc2ccc(C(=O)O)cc2/C1=C/c1[nH]cc2c1CCOC2=O
B. O=C1Nc2cccc(C3CCNCC3)c2/C1=C/c1[nH]cc2c1CCOC2=O
C. O=C1Nc2cccc(CCO)c2/C1=C/c1[nH]cc2c1CCOC2=O
stdin: // ranking: key=IC50, reverse=True As an answer, provide the labels arranged in the order called for.
stdout: A, C, B
(A: 6.2 µM, C: 1.2 µM, B: 0.49 µM)

* * *

pIC50: −log10 of the molar value.
Entries with reported pIC50 on Cyclin-dependent kinase 2 (Homo sapiens)
readout-type: pIC50

1. O=C1Nc2ccc(F)cc2/C1=C/c1[nH]cc2c1CCNC2=O
2. CNS(=O)(=O)c1ccc2c(c1)/C(=C/c1[nH]cc3c1CCOC3=O)C(=O)N2
3. CNS(=O)(=O)c1ccc2c(c1)/C(=C/c1[nH]cc3c1CCNC3=O)C(=O)N2
stdin: Please order the records by their reported pIC50, lowest number first. Respond with an ordered listing of the labels, as requested.
stdout: 1, 3, 2

* * *

Below are IC50 values recorded for UniProt P35968.

Example molecules with recorded IC50:
Cc1cccc2c1/C(=C/c1[nH]cc3c1CCOC3=O)C(=O)N2    > 20 µM
COc1ccc2c(c1)NC(=O)/C2=C\c1[nH]cc2c1CCOC2=O    > 20 µM

Next molecule, IC50 to be filled in.
stdin: I would be grateful if you could share the reported IC50 for COc1ccc2c(c1)/C(=C/c1[nH]cc3c1CCOC3=O)C(=O)N2 .
stdout: > 20 µM
